Source of measurements: ChEMBL document CHEMBL1156829

- TEST METHOD NOTES: NOVARTIS: Cytotoxicity against human hepatocellular carcinoma cell line (Huh7)
- Assay type: toxicity, cell-based, Huh-7
- SETUP CONDITIONS: Huh7 cells (hepatocellular carcinoma cell line)
What CC50 was measured for each of the following?

INSERT INTO results (compound, parameter, value_observed) VALUES
  ('Cc1ccc(C(=O)Nc2ccc(-c3nc4ccc(NC(=O)c5ccc(C)cc5)cc4[nH]3)cc2)cc1', 'CC50', '1.89 µM');

State the recorded CC50 for every item in the following list.
1. C=C[C@H]1CN2CC[C@H]1C[C@H]2[C@H](OC(C)=O)c1ccnc2ccccc12
2. COc1ccc2c(c1)C(=NN=C(N)N)c1cc(OC)ccc1-2
3. CCC1=NN2C(=N)/C(=C/c3ccc(OCCOc4ccc(Br)cc4)c(OC)c3)C(=O)N=C2S1
4. COc1cc(Nc2cncc(-c3ccc(C(N)=O)cc3)n2)cc(OC)c1OC
5. Cc1ccc(Nc2nc(NCc3ccccc3)c3ccccc3n2)cc1
6. COC(=O)c1ccc(C2C3=C(O)CC(c4ccc(C)cc4)CC3=Nc3ccccc3N2C(=O)c2cccs2)cc1 (stereo not given)

RESULT:
1. > 10 µM
2. > 10 µM
3. > 10 µM
4. 25.3 µM
5. 10.9 µM
6. > 100 µM
